Listing of entries alongside the reported Ki.
# ASSAYED_SYSTEM: Alpha-2B adrenergic receptor (Homo sapiens)
# Sequence (P18089 whole entry): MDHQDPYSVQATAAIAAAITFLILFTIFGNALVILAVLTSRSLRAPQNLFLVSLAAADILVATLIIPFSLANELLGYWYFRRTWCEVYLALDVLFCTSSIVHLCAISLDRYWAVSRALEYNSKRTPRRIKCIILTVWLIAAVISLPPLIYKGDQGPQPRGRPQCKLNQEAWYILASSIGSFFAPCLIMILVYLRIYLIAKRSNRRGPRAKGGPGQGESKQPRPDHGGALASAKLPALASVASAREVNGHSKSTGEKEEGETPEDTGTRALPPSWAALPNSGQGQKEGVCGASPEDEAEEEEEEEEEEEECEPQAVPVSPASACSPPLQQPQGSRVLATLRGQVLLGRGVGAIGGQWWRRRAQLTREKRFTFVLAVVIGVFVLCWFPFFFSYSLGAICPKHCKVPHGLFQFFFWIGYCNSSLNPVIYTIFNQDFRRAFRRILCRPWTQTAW
Answer format: numeric, nM implied, no suffix.

COc1ccc2c(c1)C1=NOC(CN3CCN(C/C=C/c4ccccc4)CC3)C1CO2 (stereo unspecified) :: 12
COc1cc2c(cc1OC)C1=NO[C@@H](CN3CCN(Cc4ccc5ccccc5c4)CC3)[C@@H]1CO2 (stereo in doubt; (-)15h) :: 95
COc1cc2c(cc1OC)C1=NOC(CN3CCN(Cc4ccccc4)CC3)C1CO2 (stereo unspecified) :: 995
C(=C\c1ccccc1)/CN1CCN(CC2ON=C3c4ccccc4OCC32)CC1 (stereo unspecified) :: 2
COc1cc2c(cc1OC)C1=NOC(CN3CCN(C/C=C(\C)c4ccccc4)CC3)C1CO2 (stereo unspecified) :: 31
COc1cc2c(cc1OC)C1=NOC(CN3CCN(CC4=Cc5ccccc5C4)CC3)C1CO2 (stereo unspecified) :: 315
COc1cc2c(cc1OC)C1=NOC(CN3CCN(C/C(C)=C/c4ccccc4)CC3)C1CO2 (stereo unspecified) :: 7.5
COc1cc2c(cc1OC)C1=NO[C@@H](CN3CCN(C/C=C/c4ccccc4)CC3)[C@@H]1CO2 (stereo in doubt; (+)5) :: 14
COc1cc2c(cc1OC)C1=NOC(CN3CCN(C/C=C/c4ccccc4)CC3)C1CO2 (stereo unspecified) :: 42
COc1cc2c(cc1OC)C1=NO[C@@H](CN3CCN(C/C=C(\C)c4ccccc4)CC3)[C@@H]1CO2 (stereo in doubt; (+)15g) :: 14

QUERY: I am curious: what Ki value has been reported for COc1cc2c(cc1OC)C1=NO[C@@H](CN3CCN(C/C=C(\C)c4ccccc4)CC3)[C@@H]1CO2 (stereo in doubt; (-)15g) ?
RESULT: 405

QUERY: I am curious: what Ki value has been reported for COc1cc2c(cc1OC)C1=NOC(CN3CCN(Cc4ccc5ncccc5c4)CC3)C1CO2 (stereo unspecified) ?
RESULT: 721

QUERY: I am curious: what Ki value has been reported for COc1ccc2c(c1)OCC1C2=NOC1CN1CCN(C/C=C/c2ccccc2)CC1 (stereo unspecified) ?
RESULT: 16

* * *

Listing of entries alongside the reported Ki.
# ASSAYED_SYSTEM: Alpha-2C adrenergic receptor (Homo sapiens, UniProt P18825)
# Sequence (P18825 whole entry): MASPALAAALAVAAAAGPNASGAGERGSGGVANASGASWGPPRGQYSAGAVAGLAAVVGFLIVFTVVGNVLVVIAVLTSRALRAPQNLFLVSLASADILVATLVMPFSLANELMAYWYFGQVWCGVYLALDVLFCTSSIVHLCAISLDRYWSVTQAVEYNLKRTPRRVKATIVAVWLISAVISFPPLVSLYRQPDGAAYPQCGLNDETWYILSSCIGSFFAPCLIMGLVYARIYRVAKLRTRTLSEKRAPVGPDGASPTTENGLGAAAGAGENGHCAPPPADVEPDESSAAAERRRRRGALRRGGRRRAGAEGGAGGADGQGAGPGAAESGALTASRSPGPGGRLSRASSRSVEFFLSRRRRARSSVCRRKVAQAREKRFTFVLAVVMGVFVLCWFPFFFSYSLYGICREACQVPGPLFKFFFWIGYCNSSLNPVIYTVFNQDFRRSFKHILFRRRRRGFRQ
Answer format: numeric, nM implied, no suffix.

COc1ccc2c(c1)OCC1C2=NOC1CN1CCN(C/C=C/c2ccccc2)CC1 (centres undefined) :: 1.9
COc1cc2c(cc1OC)C1=NOC(CN3CCN(CCc4ccccc4)CC3)C1CO2 (centres undefined) :: 89

QUERY: I am curious: what Ki value has been reported for COc1ccc2c(c1)C1=NOC(CN3CCN(C/C=C/c4ccccc4)CC3)C1CO2 (centres undefined) ?
RESULT: 2.3

QUERY: I am curious: what Ki value has been reported for C(=C\c1ccccc1)/CN1CCN(CC2ON=C3c4ccccc4OCC32)CC1 (centres undefined) ?
RESULT: 1.7

QUERY: I am curious: what Ki value has been reported for COc1cc2c(cc1OC)C1=NOC(CN3CCN(Cc4ccc5ncccc5c4)CC3)C1CO2 (centres undefined) ?
RESULT: 36

QUERY: I am curious: what Ki value has been reported for COc1cc2c(cc1OC)C1=NO[C@@H](CN3CCN(C/C=C(\C)c4ccccc4)CC3)[C@@H]1CO2 (stereo in doubt; (-)15g) ?
RESULT: 10

QUERY: I am curious: what Ki value has been reported for COc1cc2c(cc1OC)C1=NOC(CN3CCN(Cc4ccccc4)CC3)C1CO2 (centres undefined) ?
RESULT: 89

QUERY: I am curious: what Ki value has been reported for COc1cc2c(cc1OC)C1=NO[C@@H](CN3CCN(C/C=C(\C)c4ccccc4)CC3)[C@@H]1CO2 (stereo in doubt; (+)15g) ?
RESULT: 0.2

QUERY: I am curious: what Ki value has been reported for COc1cc2c(cc1OC)C1=NOC(CN3CCN(CCCc4ccccc4)CC3)C1CO2 (centres undefined) ?
RESULT: 1.9
